assay: Single dose pharmacokinetics in CD1 mice (IV, IP, PO), plasma LC-MS/MS; assay type: in vivo, mouse; settings: male, CD1, mouse, in vivo, ip, 20 mg/kg
VALUE_KIND: k el (s⁻¹)
Return type: number; implicit unit s⁻¹.

N#Cc1ccc(/C=C2/C(=O)/C(=C/c3ccc(C#N)cc3)C23CCNCC3)cc1 [Up284] yielded k el of 3.65e-06

====

Assay: Single dose pharmacokinetics in CD1 mice (IV, IP, PO), plasma LC-MS/MS
Assay type: in vivo, mouse
Details: male, CD1, mouse, in vivo, po, 50 mg/kg
Description: For single dose pharmacokinetic studies, plasma samples (40 μL) were mixed with 200 μL of a water-methanol mixture 1:9, v/v containing the internal standard elacridar at 400 ng/mL. […] The lower limit of quantitation (LLOQ) in plasma was 50 ng/mL. Pharmacokinetic parameters were calculated from mean concentration-time data using non-compartmental methods in Phoenix WinNonlin version 8.3 (Certara, Princeton, NJ). […] The AUClast was calculated using the log-linear trapezoidal method. […]
VALUE_KIND: Cmax (ng/mL)
Return type: number; implicit unit ng/mL.

N#Cc1ccc(/C=C2/C(=O)/C(=C/c3ccc(C#N)cc3)C23CCNCC3)cc1 yielded Cmax of 1830

Where do these numbers come from? They come from paper PMC10266688.
